# maps each entry to its Number average particle size (nm)
# method: Particle size, PDI and ζ-potential of mRNA-LNP (Zetasizer Nano ZS)
# Assay type: physicochemical
# condition_info: Table 2; mRNA-LNP formulation phospholipid:CL4F6:Chol:PEG-DMG 10:50:40:1.0, Fluc mRNA
Response body: numeric value in nm, unit text excluded.

Query: For the compound CCCCCCCC/C=C\CCCCCCCC(=O)OC[C@H](COP(=O)(O)OCCNCCC(=O)OCC(CCC)CCCCC)OC(=O)CCCCCCC/C=C\CCCCCCCC (stereo partly drawn) [DOPE-C7_β3] , what Number average particle size (nm) is on record?
Response: 61

Query: Fill blank: measured Number average particle size (nm) of the compound CCCCCCCC/C=C\CCCCCCCC(=O)OC[C@H](COP(=O)(O)OCCNCCC(=O)OCC(CCCC)CCCCCC)OC(=O)CCCCCCC/C=C\CCCCCCCC (stereo partly drawn) [DOPE-C8_β4] is ____.
Response: 71

Query: Entry CCCCCCCC/C=C\CCCCCCCC(=O)OC[C@H](COP(=O)(O)OCCNCCC(=O)OCCC(C)CCC=C(C)C)OC(=O)CCCCCCC/C=C\CCCCCCCC (stereo partly drawn) [DOPE-Cit] has what Number average particle size (nm)?
Response: 65

Query: Need Number average particle size (nm), item CCCCCCCC/C=C\CCCCCCCC(=O)OC[C@H](COP(=O)(O)OCCN)OC(=O)CCCCCCC/C=C\CCCCCCCC [DOPE, reference compound]
Response: 67

Query: Entry CCCCCCCC/C=C\CCCCCCCC(=O)OC[C@H](COP(=O)(O)OCCNCCC(=O)OCC(C)CCC)OC(=O)CCCCCCC/C=C\CCCCCCCC (stereo partly drawn) [DOPE-C5_β1] has what Number average particle size (nm)?
Response: 60

Query: # Number average particle size (nm) lookup, item CCCCCCCC/C=C\CCCCCCCC(=O)OC[C@H](COP(=O)(O)OCCNCCC(=O)OCC(CC)CCCC)OC(=O)CCCCCCC/C=C\CCCCCCCC (stereo partly drawn) [DOPE-C6_β2]
Response: 73

----------
# method: Particle size, PDI and ζ-potential of mRNA-LNP (Zetasizer Nano ZS)
# Type: physicochemical
# condition_info: Table 1; mRNA-LNP formulation phospholipid:CL4F6:Chol:PEG-DMG 10:50:40:1.0, Fluc mRNA
Decision: PDI >= 0.2 yields True, all other cases yield False.

[[record]]
molecule = "CCCCCCCC/C=C\\CCCCCCCC(=O)OC[C@H](COP(=O)(O)OCCNCCC(=O)OCCCCCCCCCCCC)OC(=O)CCCCCCC/C=C\\CCCCCCCC"
discrete_label = "True"

[[record]]
molecule = "CCCCCCCCCCCCCCCCCC(=O)OC[C@H](COP(=O)([O-])OCC[N+](C)(C)C)OC(=O)CCCCCCCCCCCCCCCCC [DSPC, reference compound]"
discrete_label = "False"


// switching to the query molecule
Query: API: above_or_equal(metric=PDI, cutoff=0.2) for item "CCCCCCCC/C=C\CCCCCCCC(=O)OC[C@H](COP(=O)(O)OCCNCCC(=O)OCCCCCCCC)OC(=O)CCCCCCC/C=C\CCCCCCCC"
Response: True

----------
# method: Particle size, PDI and ζ-potential of mRNA-LNP (Zetasizer Nano ZS)
# Assay type: physicochemical
# condition_info: Table 2; mRNA-LNP formulation phospholipid:CL4F6:Chol:PEG-DMG 10:50:40:1.0, Fluc mRNA
The following compounds are shown together with reported ζ-potential (mV) values.
Your answer should be a plain number; it is taken to be in mV.

[[record]]
compound = "CCCCCCCC/C=C\\CCCCCCCC(=O)OC[C@H](COP(=O)(O)OCCNCCC(=O)OCC(CCC)CCCCC)OC(=O)CCCCCCC/C=C\\CCCCCCCC (stereo partly drawn)"
test_readout = "ζ-potential (mV)"
result_number = -9.6

[[record]]
compound = "CCCCCCCC/C=C\\CCCCCCCC(=O)OC[C@H](COP(=O)(O)OCCN)OC(=O)CCCCCCC/C=C\\CCCCCCCC [DOPE, reference compound]"
test_readout = "ζ-potential (mV)"
result_number = -2.9

[[record]]
compound = "CCCCCCCC/C=C\\CCCCCCCC(=O)OC[C@H](COP(=O)(O)OCCNCCC(=O)OCC(CC)CCCC)OC(=O)CCCCCCC/C=C\\CCCCCCCC (stereo partly drawn)"
test_readout = "ζ-potential (mV)"
result_number = -5.0

[[record]]
compound = "CCCCCCCC/C=C\\CCCCCCCC(=O)OC[C@H](COP(=O)(O)OCCNCCC(=O)OCCC(C)CCC=C(C)C)OC(=O)CCCCCCC/C=C\\CCCCCCCC (stereo partly drawn)"
test_readout = "ζ-potential (mV)"
result_number = -6.1

[[record]]
compound = "CCCCCCCC/C=C\\CCCCCCCC(=O)OC[C@H](COP(=O)(O)OCCNCCC(=O)OCC(C)CCC)OC(=O)CCCCCCC/C=C\\CCCCCCCC (stereo partly drawn)"
test_readout = "ζ-potential (mV)"
result_number = -6.4


Pending compound:
Query: Returns the measured ζ-potential (mV) for the input compound. Input: CCCCCCCC/C=C\CCCCCCCC(=O)OC[C@H](COP(=O)(O)OCCNCCC(=O)OCC(CCCC)CCCCCC)OC(=O)CCCCCCC/C=C\CCCCCCCC (stereo partly drawn)
Response: -5.8

----------
List of Number average particle size (nm) values.
# method: Particle size, PDI and ζ-potential of mRNA-LNP (Zetasizer Nano ZS)
# Type: physicochemical
# condition_info: Table 1; mRNA-LNP formulation phospholipid:CL4F6:Chol:PEG-DMG 10:50:40:1.0, Fluc mRNA
State the answer as a number, implicitly in nm.

The following compounds have reported results that may help.
[[record]]
compound = "CCCCCCCC/C=C\\CCCCCCCC(=O)OC[C@H](COP(=O)(O)OCCNCCC(=O)OCCCC)OC(=O)CCCCCCC/C=C\\CCCCCCCC"
test_readout = "Number average particle size (nm)"
unit_tag = "nm"
result_number = 58

[[record]]
compound = "CCCCCCCC/C=C\\CCCCCCCCOC(=O)CCNCCOP(=O)(O)OC[C@@H](COC(=O)CCCCCCC/C=C\\CCCCCCCC)OC(=O)CCCCCCC/C=C\\CCCCCCCC"
test_readout = "Number average particle size (nm)"
unit_tag = "nm"
result_number = 56

[[record]]
compound = "CCCCCCCC/C=C\\CCCCCCCC(=O)OC[C@H](COP(=O)(O)OCCNCCC(=O)OCCCCCCCCCC)OC(=O)CCCCCCC/C=C\\CCCCCCCC"
test_readout = "Number average particle size (nm)"
unit_tag = "nm"
result_number = 48

[[record]]
compound = "CCCCCCCC/C=C\\CCCCCCCC(=O)OC[C@H](COP(=O)(O)OCCN)OC(=O)CCCCCCC/C=C\\CCCCCCCC [DOPE, reference compound]"
test_readout = "Number average particle size (nm)"
unit_tag = "nm"
result_number = 57

[[record]]
compound = "CCCCCCCC/C=C\\CCCCCCCC(=O)OC[C@H](COP(=O)(O)OCCNCCC(=O)OCCCCCCCC)OC(=O)CCCCCCC/C=C\\CCCCCCCC"
test_readout = "Number average particle size (nm)"
unit_tag = "nm"
result_number = 62

[[record]]
compound = "CCCCCCCCCCCCCCCCCC(=O)OC[C@H](COP(=O)([O-])OCC[N+](C)(C)C)OC(=O)CCCCCCCCCCCCCCCCC [DSPC, reference compound]"
test_readout = "Number average particle size (nm)"
unit_tag = "nm"
result_number = 56

[[record]]
compound = "CCCCCCCC/C=C\\CCCCCCCC(=O)OC[C@H](COP(=O)(O)OCCNCCC(=O)OCCCCCCCCCCCC)OC(=O)CCCCCCC/C=C\\CCCCCCCC"
test_readout = "Number average particle size (nm)"
unit_tag = "nm"
result_number = 59


Please find the next compound below.
Query: Which measured Number average particle size (nm) value corresponds to "CCCCCCCC/C=C\CCCCCCCC(=O)OC[C@H](COP(=O)(O)OCCNCCC(=O)OCCCCCC)OC(=O)CCCCCCC/C=C\CCCCCCCC" ?
Response: 59

----------
Catalogue of ζ-average particle size (nm) readings, one per entry.
# method: Particle size, PDI and ζ-potential of mRNA-LNP (Zetasizer Nano ZS)
# Type: physicochemical
# condition_info: Table 1; mRNA-LNP formulation phospholipid:CL4F6:Chol:PEG-DMG 10:50:40:1.0, Fluc mRNA, N/P 6
A number alone suffices; assume nm.

In the examples that follow, each entry is paired with its recorded ζ-average particle size (nm).
[[record]]
compound = "CCCCCCCC/C=C\\CCCCCCCC(=O)OC[C@H](COP(=O)(O)OCCN)OC(=O)CCCCCCC/C=C\\CCCCCCCC [DOPE, reference compound]"
result_number = 88

[[record]]
compound = "CCCCCCCC/C=C\\CCCCCCCC(=O)OC[C@H](COP(=O)(O)OCCNCCC(=O)OCCCCCCCC)OC(=O)CCCCCCC/C=C\\CCCCCCCC"
result_number = 94

[[record]]
compound = "CCCCCCCC/C=C\\CCCCCCCCOC(=O)CCNCCOP(=O)(O)OC[C@@H](COC(=O)CCCCCCC/C=C\\CCCCCCCC)OC(=O)CCCCCCC/C=C\\CCCCCCCC"
result_number = 81

[[record]]
compound = "CCCCCCCC/C=C\\CCCCCCCC(=O)OC[C@H](COP(=O)(O)OCCNCCC(=O)OCCCCCCCCCCCC)OC(=O)CCCCCCC/C=C\\CCCCCCCC"
result_number = 100

[[record]]
compound = "CCCCCCCC/C=C\\CCCCCCCC(=O)OC[C@H](COP(=O)(O)OCCNCCC(=O)OCCCCCCCCCC)OC(=O)CCCCCCC/C=C\\CCCCCCCC"
result_number = 82


Query: # get_value(readout='ζ-average particle size (nm)', item= CCCCCCCCCCCCCCCCCC(=O)OC[C@H](COP(=O)([O-])OCC[N+](C)(C)C)OC(=O)CCCCCCCCCCCCCCCCC [DSPC, reference compound] )
Response: 75

Query: Field request: ζ-average particle size (nm) | item: "CCCCCCCC/C=C\CCCCCCCC(=O)OC[C@H](COP(=O)(O)OCCNCCC(=O)OCCCCCC)OC(=O)CCCCCCC/C=C\CCCCCCCC"
Response: 86

Query: Name the recorded ζ-average particle size (nm) for "CCCCCCCC/C=C\CCCCCCCC(=O)OC[C@H](COP(=O)(O)OCCNCCC(=O)OCCCC)OC(=O)CCCCCCC/C=C\CCCCCCCC" .
Response: 87
